- Tested on: porcine kidney trehalase
- assay: Glycosidase inhibition, laboratory 1: trehalase
- Type: biochemical
- run conditions: 100 μM, methanol
property measured: inhibition % at 100 μM

Worked set:
{"columns": ["molecule", "property measured", "value observed"],
 "data": [
  ["CC1(C)OB(c2cccc(NC(=O)c3cc(Cl)c(Cl)c(Cl)c3Cl)c2)OC1(C)C", "inhibition % at 100 μM", "^aNI ^b (0%)"],
  ["N[C@@H](Cc1ccc(B(O)O)cc1)C(=O)O [BPA, 4-borono-L-phenylalanine, reference compound]", "inhibition % at 100 μM", "^cNI ^d (0%)"],
  ["CC1(C)OB(c2ccc(CN3C(=O)c4c(Cl)c(Cl)c(Cl)c(Cl)c4C3=O)cc2)OC1(C)C", "inhibition % at 100 μM", "^aNI ^b (0%)"],
  ["N[C@@H](Cc1ccc(B(O)O)cc1)C(=O)O [^10B-BPA, reference compound]", "inhibition % at 100 μM", "^cNI ^d (0%)"],
  ["CC1(C)OB(c2cccc(CN3C(=O)c4c(Cl)c(Cl)c(Cl)c(Cl)c4C3=O)c2)OC1(C)C", "inhibition % at 100 μM", "^aNI ^b (0%)"]
]}

In the following, a different molecule is considered.
stdin: Under porcine kidney trehalase: inhibition % at 100 μM value of CC1(C)OB(c2ccc(NC(=O)c3cc(Cl)c(Cl)c(Cl)c3Cl)cc2)OC1(C)C ?
stdout: ^aNI ^b (0%)

###

- Test system: almond β-glucosidase
- assay: Glycosidase inhibition, laboratory 1: almond β-glucosidase
- Format: biochemical
- run conditions: 100 μM, methanol
- Procedure: […] Brush border membranes were prepared from the rat small intestine according to the method of Kessler et al. and were assayed at pH 6.8 for rat intestinal maltase using maltose. […] The absorbance at 505 nm was measured to determine the amount of the released D-glucose. Other glycosidase activities were determined using an appropriate para-nitrophenyl glycoside as substrate at the optimum pH of each enzyme. […] The released para-nitrophenol was measured spectrometrically at 400 nm. […]

{"columns": ["compound", "inhibition % at 100 μM"],
 "data": [
  ["N[C@@H](Cc1ccc(B(O)O)cc1)C(=O)O [^10B-BPA, reference compound]", "^cNI ^d (0%)"],
  ["N[C@@H](Cc1ccc(B(O)O)cc1)C(=O)O [BPA, 4-borono-L-phenylalanine, reference compound]", "^cNI ^d (0%)"]
]}

###

Reported inhibition at 400 µM values follow for various compounds
- assayed system: Jack bean α-mannosidase (Canavalia ensiformis)
- Construct: purchased Sigma-Aldrich Co
- Sequence (C0HJB3 whole entry): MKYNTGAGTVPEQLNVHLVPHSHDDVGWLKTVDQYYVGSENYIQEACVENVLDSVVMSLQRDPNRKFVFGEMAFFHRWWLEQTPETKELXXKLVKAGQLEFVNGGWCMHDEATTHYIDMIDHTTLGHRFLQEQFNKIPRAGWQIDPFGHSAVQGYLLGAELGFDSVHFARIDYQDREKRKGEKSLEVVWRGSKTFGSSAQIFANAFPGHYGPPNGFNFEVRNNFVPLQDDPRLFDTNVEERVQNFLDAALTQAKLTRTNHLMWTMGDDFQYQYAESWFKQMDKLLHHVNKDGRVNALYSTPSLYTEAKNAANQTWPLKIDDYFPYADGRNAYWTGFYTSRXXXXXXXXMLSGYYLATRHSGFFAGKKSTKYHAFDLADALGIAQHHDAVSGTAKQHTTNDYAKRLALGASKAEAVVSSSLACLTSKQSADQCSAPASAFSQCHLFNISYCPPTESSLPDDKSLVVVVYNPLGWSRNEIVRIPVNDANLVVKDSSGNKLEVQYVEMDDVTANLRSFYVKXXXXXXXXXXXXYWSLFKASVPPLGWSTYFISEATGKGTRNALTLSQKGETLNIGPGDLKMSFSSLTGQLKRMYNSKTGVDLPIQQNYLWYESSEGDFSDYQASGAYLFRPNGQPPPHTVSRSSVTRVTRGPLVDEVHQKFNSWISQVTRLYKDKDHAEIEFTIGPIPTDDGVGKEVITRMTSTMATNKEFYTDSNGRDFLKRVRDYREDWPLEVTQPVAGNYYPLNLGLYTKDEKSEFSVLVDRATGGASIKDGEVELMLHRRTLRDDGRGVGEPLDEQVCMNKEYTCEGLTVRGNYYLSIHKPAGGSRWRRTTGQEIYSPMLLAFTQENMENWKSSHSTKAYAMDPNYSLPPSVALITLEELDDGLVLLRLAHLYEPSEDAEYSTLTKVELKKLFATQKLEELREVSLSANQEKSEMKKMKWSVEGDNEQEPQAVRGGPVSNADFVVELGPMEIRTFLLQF
- assay: Glycosidase inhibition, laboratory 2: Jack bean α-mannosidase
- Format: biochemical
- run conditions: read-out: % inhibition at ~400 μM, water
State just the number; it will be interpreted in %.

Worked set:
{"columns": ["item smiles", "inhibition at 400 µM, %"],
 "data": [
  ["CC1(C)OB(c2ccccc2CNC(=O)c2cc(Cl)c(Cl)c(Cl)c2Cl)OC1(C)C", -6.1],
  ["CC1(C)OB(c2ccc(CN3C(=O)c4c(Cl)c(Cl)c(Cl)c(Cl)c4C3=O)cc2)OC1(C)C", 16.5]
]}

In the following, a different compound is considered.
stdin: Looking for the measured inhibition at 400 µM of CC1(C)OB(c2ccccc2NC(=O)c2cc(Cl)c(Cl)c(Cl)c2Cl)OC1(C)C , can you help?
stdout: 0

Attribution: paper PMC9182199
